# System Under Test: JAK3 (Homo sapiens)
# Sequence (P52333 1-1124): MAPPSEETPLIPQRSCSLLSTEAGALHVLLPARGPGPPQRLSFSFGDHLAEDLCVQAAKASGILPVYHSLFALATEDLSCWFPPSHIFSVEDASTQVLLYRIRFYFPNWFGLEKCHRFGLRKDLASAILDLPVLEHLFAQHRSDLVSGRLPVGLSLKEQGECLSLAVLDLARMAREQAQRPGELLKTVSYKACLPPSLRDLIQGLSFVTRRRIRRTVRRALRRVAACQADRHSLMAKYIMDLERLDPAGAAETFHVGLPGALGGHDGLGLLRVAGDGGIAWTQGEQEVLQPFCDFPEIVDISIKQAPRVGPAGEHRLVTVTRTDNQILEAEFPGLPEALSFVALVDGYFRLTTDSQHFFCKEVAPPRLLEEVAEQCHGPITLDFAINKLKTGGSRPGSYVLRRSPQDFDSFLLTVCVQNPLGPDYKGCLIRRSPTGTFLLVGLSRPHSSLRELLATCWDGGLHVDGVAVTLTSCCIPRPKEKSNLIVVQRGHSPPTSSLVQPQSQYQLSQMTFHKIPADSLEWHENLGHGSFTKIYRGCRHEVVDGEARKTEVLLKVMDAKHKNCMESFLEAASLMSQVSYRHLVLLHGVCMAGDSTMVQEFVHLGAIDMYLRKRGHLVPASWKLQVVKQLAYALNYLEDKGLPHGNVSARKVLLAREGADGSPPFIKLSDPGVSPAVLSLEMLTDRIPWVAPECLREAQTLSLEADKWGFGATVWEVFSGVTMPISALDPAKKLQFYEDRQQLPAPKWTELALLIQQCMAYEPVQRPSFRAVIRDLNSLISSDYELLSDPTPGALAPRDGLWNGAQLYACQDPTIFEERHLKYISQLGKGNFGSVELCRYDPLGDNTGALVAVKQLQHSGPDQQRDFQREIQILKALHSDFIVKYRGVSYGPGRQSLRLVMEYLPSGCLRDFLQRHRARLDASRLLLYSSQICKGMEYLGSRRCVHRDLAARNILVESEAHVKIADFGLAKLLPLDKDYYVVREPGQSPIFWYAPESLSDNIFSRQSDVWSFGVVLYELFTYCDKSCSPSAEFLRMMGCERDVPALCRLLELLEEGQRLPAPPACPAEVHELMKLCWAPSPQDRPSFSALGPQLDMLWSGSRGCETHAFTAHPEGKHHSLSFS
# Test Description: Biochemical JAK3 kinase assay (LanthaScreen)
# Design: GST; purchased Life Technologies
# Condition Parameters: selectivity JAK3 over JAK1, difference of pKi
Assay Endpoint: JAK3 (pKi)-JAK1 (pKi)

Some solved cases for reference:
INSERT INTO measurements (compound, assay_endpoint, result) VALUES
  ('C=CC(=O)N1CCC(COc2cc(-c3ccc(O)c(F)c3)cc3[nH]ncc23)CC1 [Compound 14-5]', 'JAK3 (pKi)-JAK1 (pKi)', 'B (a value of 2.3 to 3)'),
  ('C=CC(=O)N1CC2(CC(Oc3cc(-c4ccc(O)cc4)nc4[nH]ncc34)C2)C1 [Compound 15-8]', 'JAK3 (pKi)-JAK1 (pKi)', 'B (a value of 2.3 to 3)'),
  ('C=CC(=O)N1CCC(Oc2cc(-c3ccc(O)cc3)cc3[nH]ncc23)CC1 [Compound 6-2]', 'JAK3 (pKi)-JAK1 (pKi)', 'B (a value of 2.3 to 3)'),
  ('C=CC(=O)N1C2CCC1CC(Oc1cc(-c3ccc(O)c(F)c3)cc3[nH]ncc13)C2 (stereo not shown) [Compound 10-6]', 'JAK3 (pKi)-JAK1 (pKi)', 'B (a value of 2.3 to 3)'),
  ('CN(C)C/C=C/C(=O)N1CC(COc2cc(-c3ccc(O)cc3)cc3[nH]nc(C(F)(F)F)c23)C1 [Compound 18-12]', 'JAK3 (pKi)-JAK1 (pKi)', 'B (a value of 2.3 to 3)'),
  ('CN(C)C/C=C/C(=O)N1CC2(CC(Oc3cc(-c4ccc(O)c(F)c4)cc4[nH]ncc34)C2)C1 [Compound 15-5]', 'JAK3 (pKi)-JAK1 (pKi)', 'B (a value of 2.3 to 3)'),
  ('CN(C)C/C=C/C(=O)N1CCC(Oc2cc(-c3ccc(O)cc3)cc3[nH]ncc23)CC1 [Compound 6-1]', 'JAK3 (pKi)-JAK1 (pKi)', 'B (a value of 2.3 to 3)'),
  ('CN(C)C/C=C/C(=O)N1CC[C@@H](Sc2cc(-c3ccc(O)cc3)cc3[nH]ncc23)C1 [Compound 12-3]', 'JAK3 (pKi)-JAK1 (pKi)', 'B (a value of 2.3 to 3)'),
  ('C=CC(=O)N1CC[C@H](Nc2cc(-c3ccc(O)cc3)cc3[nH]ncc23)C[C@@H]1C [Compound 12-15]', 'JAK3 (pKi)-JAK1 (pKi)', 'B (a value of 2.3 to 3)');

Consider now this further compound.
[ask] Entry C=CC(=O)N1CCO[C@@H](C(=O)Nc2nc(-c3ccc(O)c(Cl)c3)cc3[nH]ncc23)C1 [Compound 13-20] : reported JAK3 (pKi)-JAK1 (pKi) = ?
[reply] B (a value of 2.3 to 3)
